The following molecules are listed with their measured hPXR Activity values.
assayedSystem: UniProtKB O75469
Sequence (O75469 1-434): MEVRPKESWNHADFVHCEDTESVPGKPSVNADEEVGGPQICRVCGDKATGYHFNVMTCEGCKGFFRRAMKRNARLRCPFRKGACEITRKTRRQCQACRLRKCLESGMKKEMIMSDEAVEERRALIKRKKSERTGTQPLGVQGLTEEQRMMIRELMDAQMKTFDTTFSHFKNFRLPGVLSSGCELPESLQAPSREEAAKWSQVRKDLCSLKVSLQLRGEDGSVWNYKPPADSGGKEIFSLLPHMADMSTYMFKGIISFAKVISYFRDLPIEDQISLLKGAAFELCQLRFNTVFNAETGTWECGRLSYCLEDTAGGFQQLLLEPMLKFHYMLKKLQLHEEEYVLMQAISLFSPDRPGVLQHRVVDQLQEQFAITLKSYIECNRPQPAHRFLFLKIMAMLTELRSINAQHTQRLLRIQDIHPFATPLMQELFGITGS
measuredEndpoint: hPXR Activity

* C[C@H](CC(=O)O)[C@H]1CC[C@H]2[C@@H]3[C@H](O)C[C@@H]4C[C@H](O)CC[C@]4(C)[C@H]3C[C@H](O)[C@]12C | 4.02
* CC(=O)[C@@]1(O)CC[C@H]2[C@@H]3CC=C4C[C@@H](O)CC[C@]4(C)[C@H]3CC[C@@]21C | 4.47
* C[C@H](CC(=O)O)[C@H]1CC[C@H]2[C@@H]3CC[C@@H]4C[C@H](O)CC[C@]4(C)[C@H]3C[C@H](O)[C@]12C | 4.79
* C[C@]12CC[C@H](O)CC1=CC[C@@H]1[C@@H]2CC[C@]2(C)C(=O)CC[C@@H]12 | 4.49
* C[C@@H](O)[C@H]1CC[C@H]2[C@@H]3CC[C@@H]4C[C@H](O)CC[C@]4(C)[C@H]3CC[C@]12C | 5.42
* C[C@]12CC[C@@H](O)C[C@H]1CC[C@@H]1[C@@H]2C(=O)C[C@@]2(C)[C@H]1CC[C@]2(O)C(=O)CO | 4.28
* C[C@]12CC[C@@H](O)C[C@H]1CC[C@@H]1[C@@H]2[C@@H](O)C[C@@]2(C)[C@H]1CC[C@]2(O)[C@@H](O)CO | 4.33

Every entry's value here was drawn from paper PMC2358886.
